test system: NQ01 specific enzyme activity in BEAS-2B cells (marker for Nrf2 activation); test: BEAS-2B NQ01 MTT Assay; assay type: cell-based; conditions: Homo sapiens; NQ01 specific activity induction in BEAS-2B cells, 48 hours incubation with compound
pEC50: −log10 of the molar value.
PROPERTY_MEASURED: pEC50

INPUT: Query: pEC50; subject: Cc1ccc([C@@H](c2ccc3c(nnn3C)c2C)C(C)(C)C(=O)O)cc1CN1CC(=O)N(C)CC(C)(C)C1
OUTPUT: 8.00 to 9.00

INPUT: Query: pEC50; subject: CCCN1CC(C)(C)CN(Cc2cc(C(CCc3cn(CC)nn3)C(C)(C)C(=O)O)ccc2Cl)CC1=O (stereo not shown)
OUTPUT: 7.00 to 8.00

INPUT: Query: pEC50; subject: Cc1ccc(C(c2ccc3c(nnn3C)c2C)C(C)(C)C(=O)O)cc1CN1CC(=O)N(C2CCC2)CC(C)(C)C1 (stereo not shown)
OUTPUT: 8.00 to 9.00

INPUT: Query: pEC50; subject: Cc1ccc(C(c2ccc3c(nnn3C)c2C)C(C)(C)C(=O)O)cc1CN1CC(=O)N(C)CC(C)(C)C1 (stereo not shown)
OUTPUT: 8.00 to 9.00

INPUT: Query: pEC50; subject: CCn1cc(COC(c2ccc(C)c(CN3CC(=O)N(C)CC(C)(C)C3)c2)C(C)(C)C(=O)O)nn1 (stereo not shown)
OUTPUT: 6.00 to 7.00

INPUT: Query: pEC50; subject: Cc1c(C(c2ccc3c(c2)C(N2CC(=O)N(C)CC(C)(C)C2)CC3)C(C)(C)C(=O)O)ccc2c1nnn2C (single isomer, unassigned) [Example 12]
OUTPUT: 7.00 to 8.00

INPUT: Query: pEC50; subject: CCCN1CC(C)(C)CN(Cc2cc([C@@H](c3ccc4c(nnn4C)c3C)C(C)(C)C(=O)O)ccc2C)CC1=O
OUTPUT: 8.00 to 9.00
